- target-system: Plasma kallikrein (Homo sapiens)
- Sequence (P03952 20-390 limits assumed): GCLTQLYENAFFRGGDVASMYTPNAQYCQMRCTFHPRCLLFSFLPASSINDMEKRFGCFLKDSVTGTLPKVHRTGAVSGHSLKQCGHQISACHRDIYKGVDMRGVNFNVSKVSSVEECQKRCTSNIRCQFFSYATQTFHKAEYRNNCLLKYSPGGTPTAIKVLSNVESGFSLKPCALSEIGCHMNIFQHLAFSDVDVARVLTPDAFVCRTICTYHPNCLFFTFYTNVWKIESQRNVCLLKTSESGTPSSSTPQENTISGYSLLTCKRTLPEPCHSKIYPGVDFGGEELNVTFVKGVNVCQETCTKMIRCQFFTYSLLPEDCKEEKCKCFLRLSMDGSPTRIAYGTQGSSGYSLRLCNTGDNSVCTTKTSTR
- Sequence (P03952 391-638 limits assumed): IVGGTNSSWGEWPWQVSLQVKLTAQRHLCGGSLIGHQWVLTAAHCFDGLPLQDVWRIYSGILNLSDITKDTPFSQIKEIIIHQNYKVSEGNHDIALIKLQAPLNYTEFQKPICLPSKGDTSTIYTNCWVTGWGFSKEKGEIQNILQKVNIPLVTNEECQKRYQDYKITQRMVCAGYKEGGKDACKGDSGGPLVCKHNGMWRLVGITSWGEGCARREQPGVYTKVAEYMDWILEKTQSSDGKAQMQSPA
- measurement-description: Subsequently, PPACK II (Calbiochem) was added as a stop solution to achieve a final concentration of 1 μM and fluorescence was measured using an Envision Reader (PerkinElmer) with the wavelength excitation setting of 355 nm and the wavelength emission setting of 460 nm.Evaluation of the Inhibition of Human KLKB1 in Dextransulfat Activated Human PPP.Platelet poor plasma (PPP) obtained from human wholeblood, anticoagulated with EDTA, was activated with 12.5 μg/mL dextransulfate for 7 min on ice. The activated PPP was incubated with various concentrations of the test compound in assay buffer. […] Measurements were performed in a kinetic interval every 2nd minute for 16 min using a Spectramax M5 (Molecular Devices) with the following settings of the wavelength excitation of 350 nm and wavelength emission of 450 nm.
endpoint-label: IC50 (nM)
Reply numerically in nM, unit not repeated.

Prompt: Checklist item: IC50 tested on Plasma kallikrein (Homo sapiens), entry Cc1ccc2cc(Cn3cc(C(=O)N[C@@H]4CCc5c4ccnc5N)nn3)ccc2n1 , value?
Response: 36

Prompt: Now the same for Cc1ccc2cc(Cn3cc(C(=O)N[C@H]4CCc5c4ccnc5N)nn3)ccc2n1
Response: 1900
